test system: HCT116 cells; assay: Lactate dehydrogenase (LDH) release assay; type: cell-based; details: 0% FBS 16Hr
Positions of bridges follow the written chain, without caps; N, C: chain ends. Non-standard residues stand in square brackets, D forms with d. Residues, ends and D or L forms follow the SMILES beside them. R8 = C=CCCCCCC[C@@](C)(N)C(=O)O; Cba = N[C@@H](CC1CCC1)C(=O)O; S5 = C=CCCC[C@](C)(N)C(=O)O
reported_metric: LDH: Cytotoxicity assay % Effect (%)

• CC(=O)N[C@@H](CC(C)C)C(=O)N[C@H](C(=O)N[C@@H](Cc1ccccc1)C(=O)N[C@]1(C)CCCCCCC=CCCC[C@@](C)(C(=O)N[C@@H](Cc2c[nH]cn2)C(=O)N[C@@H](C)C(=O)N[C@@H](C)C(N)=O)NC(=O)[C@H](CC2CCC2)NC(=O)[C@H](CC(C)C)NC(=O)[C@H](CCC(N)=O)NC(=O)[C@H](Cc2c[nH]c3ccccc23)NC(=O)[C@H](Cc2ccc(O)cc2)NC(=O)[C@H](CCC(=O)O)NC1=O)[C@@H](C)O [MP-201, ATSP-7041 (S12H)] (Ac-LTF[R8]EYWQL[Cba][S5]HAA-NH2; staple 4-11) = 6.91

====

experiment: Experimental LogD (partition coefficient); conditions: not stated, Partition Coeff LogD
reported_metric: logD

* CC(=O)N[C@@H](CCCCN=[N+]=[N-])C(=O)NCCC(=O)N[C@@H](CC(C)C)C(=O)N[C@H](C(=O)N[C@@H](Cc1ccccc1)C(=O)N[C@]1(C)CCCCC#CC#CCCC[C@@](C)(C(=O)N[C@@H](C)C(=O)N[C@@H](C)C(=O)N[C@@H](C)C(=O)N[C@@H](C)C(=O)N[C@@H](C)C(=O)N[C@H](C)C(N)=O)NC(=O)[C@H](CC2CCC2)NC(=O)[C@H](CCC(N)=O)NC(=O)[C@H](C)NC(=O)[C@H](Cc2c[nH]c3ccccc23)NC(=O)[C@H](Cc2ccc(O)cc2)NC(=O)[C@H](CCC(=O)O)NC1=O)[C@@H](C)O | 2.67

====

assay: Lactate dehydrogenase (LDH) release assay; type: cell-based; settings: LDH: Cytotoxicity assay EC50
pEC50: −log10 of the molar value. Positions of bridges follow the written chain, without caps; N, C: chain ends. Non-standard residues stand in square brackets, D forms with d. Residues, ends and D or L forms follow the SMILES beside them. 2Nal = N[C@@H](Cc1ccc2ccccc2c1)C(=O)O; R8 = C=CCCCCCC[C@@](C)(N)C(=O)O; Cba = N[C@@H](CC1CCC1)C(=O)O; S5 = C=CCCC[C@](C)(N)C(=O)O
reported_metric: pEC50

- CC(=O)N[C@@H](CCCCN)C(=O)N[C@@H](CCCCN)C(=O)N[C@H](C(=O)N[C@@H](CO)C(=O)N[C@@H](Cc1ccc2ccccc2c1)C(=O)N[C@]1(C)CCCCCCC=CCCC[C@@](C)(C(=O)N[C@@H](CCC(=O)O)C(N)=O)NC(=O)[C@H](CC2CCC2)NC(=O)[C@H](CC(C)C)NC(=O)[C@H](C)NC(=O)[C@H](Cc2c[nH]c3ccccc23)NC(=O)[C@H](Cc2ccc(O)cc2)NC(=O)[C@H](CCC(=O)O)NC1=O)[C@@H](C)O [MP-158] (Ac-KKTS[2Nal][R8]EYWAL[Cba][S5]E-NH2; staple 6-13): < 4.30
